- Test system: Plasmodium berghei
- MEASUREMENT NOTES: Screen against P. berghei liver stage (PbLuc), transformed with Luciferase, at 10uM
- Assay type: functional, HepG2
- PROTOCOL CONDITIONS: tested at 10 uM
The whole screen tested about 69,000 compounds, of which about 8,600 (12%) showed an effect of 50% or more. The entries come from a sample that favours strong results as a whole.
Classify as follows. Reported INHIBITION greater than or equal to 20%: yes. Reported INHIBITION below: no.

Below are worked cases with known answers.
* CN(C)CCCn1ccnc1C1CCCN(c2ncc(Cl)cc2F)C1 (configuration not stated) | no
* O=C1CC2(CCN(c3nncs3)C2)CN1c1ccc2c(c1)OCCO2 (configuration not stated) | no
* O=C(Cn1cc(-n2cccc2)cn1)NCC1CCC1 | yes
* Cc1nc(CNC(=O)NC2CCN(c3cccc(Cl)c3)C2)no1 (configuration not stated) | yes
* CSc1nccc(N2CCC(NCc3nc(C)cc(C)n3)CC2)n1 | no

Prompt: Dear colleague, could you confirm whether CCCC(=O)NCC1CCCN(Cc2cc(C)c(C)o2)C1 (configuration not stated) has INHIBITION at or above 20%?
Completion: yes

Prompt: State whether the measured INHIBITION reaches 20%, counting equality as reaching it, for `O=C(c1cc(Cl)c2c(c1)OCO2)N1CCN(c2ncccn2)CC1`
Completion: no

Prompt: Textbook exercise: given the entry `CSc1nccc(N2CCC(NCc3ccc4c(c3)OCO4)CC2)n1` , state whether its INHIBITION is greater than or equal to 20%.
Completion: yes

Prompt: Tell me whether INHIBITION is at least 20% here: `O=C(Cn1cc(-n2cccc2)cn1)NCC(F)(F)F`
Completion: no

Prompt: Hello, I need to know if `O=C(c1ccoc1)N1CCC2(CCC(=O)N2Cc2ccncc2)CC1` has measured INHIBITION not below 20%. Thanks!
Completion: yes

Prompt: Given O=C(c1ccoc1)N1CCCC2(CCC(=O)N2Cc2cccnc2)C1 (configuration not stated) , state whether its INHIBITION is at least 20%.
Completion: yes

Prompt: Assess whether reported INHIBITION for O=C(CC1CC2(CCN(CC3CC3)CC2)Oc2ccccc21)NC1CC1 (configuration not stated) sits at 20% or higher.
Completion: no

Prompt: Form field: INHIBITION at least 20%? Entry: CCN1C(=O)CCCC12CCCN(C(=O)c1ccncc1F)C2 (configuration not stated)
Completion: yes

Prompt: Hello, I need to know if `Cc1cccc(N2CCC(NCc3cnc(C4CCC4)s3)CC2)n1` has measured INHIBITION not below 20%. Thanks!
Completion: yes

Prompt: Given O=C(Cn1cccn1)NCC1CCCN(Cc2ccccc2)C1 (configuration not stated) , state whether its INHIBITION is at least 20%.
Completion: no

Prompt: // inclusive: INHIBITION at least 20%? input: Cc1cc(CN2CCCC(CNC(=O)Cn3cccn3)C2)oc1C (configuration not stated)
Completion: yes

Prompt: Does the reported INHIBITION for `COc1ncccc1C(=O)N1C[C@@H]2COC[C@]2(CN(C)C)C1` fall at or above the 20% mark?
Completion: no

Prompt: Could you verify whether the entry `CC(C)CCN(C(=O)c1nc(S(C)(=O)=O)n2ccccc12)C1CC1` shows INHIBITION of no less than 20%?
Completion: no

Prompt: Entry COCC(C)(O)CNC(=O)c1cc(-c2ccc(F)cc2)nn1C (configuration not stated) : is its INHIBITION no less than 20%?
Completion: no

Prompt: Is it the case that CSc1nccc(N2CCC(=O)N(CC3CC3)C(C(C)C)C2)n1 (configuration not stated) has INHIBITION reaching or exceeding 20%?
Completion: no

Prompt: Threshold query (INHIBITION >= 20%) on `O=C(Cn1cc(I)cn1)NCC1CCC1`
Completion: yes
